Recorded values, source patent US20260167638A1.

- protocol-description: Example 20 crossover pharmacokinetics of two oral tablet formulations in dogs under fed conditions
- Format: in vivo, beagle dogs
- assay-context: male, beagle, dog, plasma, po, 200 mg/tablet/dog, Example 20, fed dogs, 200 mg tablet PO, mean; LLOQ 20 ng/mL; read-out: Plasma concentration of Compound I at 0.5 hours
- Protocol: Pharmacokinetics parameters of formulations of Compound I and its salts in dogs were determined by orally administering a test formulation tablet at 200 mg of active (Compound I or salt) per dog. Blood samples were taken at various times after administration, plasma prepared, and submitted to analysis for parent drug using a qualified LC-MS-MS assay. Pharmacokinetics parameters derived from the plasma analytical data were determined using non-compartmental analysis. […]
readout-kind: concentration at 0.5 h (µg/mL)
# output: bare number, implied unit µg/mL

Requested field: concentration at 0.5 h. Item: Cc1ccc(S(=O)(=O)O)cc1.Cn1cc(-c2cn(-c3ccc(OC(F)(F)F)cc3)c(=O)c3ncn(C)c23)cn1 [mono-tosylate]
0.717

* * *

- protocol-description: Example 19 crossover pharmacokinetics of four oral tablet formulations in fasted dogs
- Type: in vivo, beagle dogs
- assay-context: male, beagle, dog, plasma, po, 200 mg, Example 19, fasted dogs, 200 mg tablet PO, mean; read-out: tmax
readout-kind: tmax
Could you write the number and then its unit?

Looking for the measured tmax of Cc1ccc(S(=O)(=O)O)cc1.Cn1cc(-c2cn(-c3ccc(OC(F)(F)F)cc3)c(=O)c3ncn(C)c23)cn1 [mono-tosylate] , can you help?
1.8 h

* * *

- protocol-description: Example 20 crossover pharmacokinetics of two oral tablet formulations in dogs under fed conditions
- Format: in vivo, beagle dogs
- assay-context: male, beagle, dog, plasma, po, 200 mg, Example 20, fed dogs (high fat diet), 200 mg tablet PO, mean
readout-kind: AUC(0-t) (ng·h/mL)
Reply numerically in ng·h/mL, unit not repeated.

For Cc1ccc(S(=O)(=O)O)cc1.Cn1cc(-c2cn(-c3ccc(OC(F)(F)F)cc3)c(=O)c3ncn(C)c23)cn1 [mono-tosylate] , what is its reported AUC(0-t)?
48800

* * *

- protocol-description: Example 21 crossover pharmacokinetics of mono-tosylate and di-tosylate tablets in fasted dogs
- Type: in vivo, beagle dogs
- assay-context: male, beagle, dog, plasma, po, 200 mg, Example 21, fasted dogs, 200 mg tablet PO, mean; read-out: Cmax
- Experimental: Pharmacokinetics parameters of formulations of Compound I and its salts in dogs were determined by orally administering a test formulation tablet at 200 mg of active (Compound I or salt) per dog. Blood samples were taken at various times after administration, plasma prepared, and submitted to analysis for parent drug using a qualified LC-MS-MS assay. Pharmacokinetics parameters derived from the plasma analytical data were determined using non-compartmental analysis. […]
readout-kind: Cmax (ng/mL)
Reply numerically in ng/mL, unit not repeated.

Give its Cmax value. Item: Cc1ccc(S(=O)(=O)O)cc1.Cn1cc(-c2cn(-c3ccc(OC(F)(F)F)cc3)c(=O)c3ncn(C)c23)cn1 [mono-tosylate]
6480

* * *

- protocol-description: Approximate solubility in MeOH/MTBE at room temperature
- Format: physicochemical
- assay-context: MeOH/MTBE (v/v, 1:3), organic solvent or mixture, read-out: approximate solubility in MeOH/MTBE (v/v, 1:3)
readout-kind: solubility

Recorded solubility of Cc1ccc(S(=O)(=O)O)cc1.Cn1cc(-c2cn(-c3ccc(OC(F)(F)F)cc3)c(=O)c3ncn(C)c23)cn1 [mono-tosylate] , please.
< 5400 µg/mL
